System: SARS-CoV-2
Assay: Inhibition of cell viability relative to arbidol control (inhibition index > 1 indicates higher activity) measured by fluorescence (OD590nm) in Vero E6 cells infected with SARS-CoV-2 (strain BavPat1) at MOI 0.002 after 72hrs
Assay type: functional, Chlorocebus sabaeus, Vero C1008
Over roughly 1,500 compounds, “Inhibition index” has its median near 0.17; the highest 2% begin near 1.3. This excerpt belongs to a sample that is enriched for the highest values.
measured-property: Inhibition index

{"molecule": "CCCCc1cc2ccccc2c(OCCN(C)C)n1.Cl [DIMETHISOQUIN HYDROCHLORIDE]", "measured-property": "Inhibition index", "test-result": -0.1351}
{"molecule": "CCCC1O[C@@H]2C[C@H]3[C@@H]4CCC5=CC(=O)C=C[C@]5(C)[C@H]4[C@@H](O)C[C@]3(C)[C@]2(C(=O)CO)O1 (some centres not stated) [BUDESONIDE]", "measured-property": "Inhibition index", "test-result": 0.726}
{"molecule": "Cl.N=C(N)NC(=N)NCCc1ccccc1 [PHENFORMIN HYDROCHLORIDE]", "measured-property": "Inhibition index", "test-result": -0.07157}
{"molecule": "CC1(C)O[C@@H]2C[C@H]3[C@@H]4CCC5=CC(=O)C=C[C@]5(C)[C@H]4[C@@H](O)C[C@]3(C)[C@]2(C(=O)CO)O1 [DESONIDE]", "measured-property": "Inhibition index", "test-result": 1.58}
{"molecule": "C#C[C@]1(O)CC[C@H]2[C@@H]3[C@H](C)CC4=C(CCC(=O)C4)[C@H]3CC[C@@]21C [TIBOLONE]", "measured-property": "Inhibition index", "test-result": 0.3794}
{"molecule": "CCOC(=O)O[C@]1(C(=O)OCCl)CC[C@H]2[C@@H]3CCC4=CC(=O)C=C[C@]4(C)[C@H]3[C@@H](O)C[C@@]21C [LOTEPREDNOL ETABONATE]", "measured-property": "Inhibition index", "test-result": 0.5857}
{"molecule": "C=CC[C@]1(O)CC[C@H]2[C@@H]3CCC4=CC(=O)CCC4=C3C=C[C@@]21C [ALTRENOGEST]", "measured-property": "Inhibition index", "test-result": 0.8504}

* * *

System: SARS-CoV-2
Experiment: Inhibition of cell viability relative to arbidol control (inhibition index > 1 indicates higher activity) measured by fluorescence (OD590nm) in Vero E6 cells infected with SARS-CoV-2 (strain BavPat1) at MOI 0.002 after 72hrs
Type: functional, Chlorocebus sabaeus, Vero C1008
Whole data set: some 1,500 compounds, median “Inhibition index” near 0.17, cut for the highest 2% near 1.3. The sample as a whole holds a higher share of the highest values than the screen did.
# Inhibition index listing for each entry below
measured-property: Inhibition index

{"molecule": "CNCC(O)c1ccc(O)c(O)c1.Cl (configuration not stated) [RACEPINEPHRINE HYDROCHLORIDE]", "test-result": 0.3358}
{"molecule": "CC(=O)[C@H]1CC[C@H]2[C@@H]3C=CC4=CC(=O)CC[C@@]4(C)[C@@H]3CC[C@]12C", "test-result": 0.5447}
{"molecule": "C[C@]12CCC(=O)C=C1CC[C@@H]1[C@@H]2[C@@H](O)C[C@@]2(C)[C@H]1CC[C@]2(O)C(=O)CO [HYDROCORTISONE]", "test-result": 0.1194}
{"molecule": "CC(C)(C)NCC(O)c1ccc(O)c(CO)c1 (configuration not stated)", "test-result": 0.0995}
{"molecule": "CN1[C@@H]2CC[C@H]1C[C@@H](OC1c3ccccc3CCc3ccccc31)C2.O=C(O)CC(O)(CC(=O)O)C(=O)O [DEPTROPINE CITRATE]", "test-result": -0.3511}
{"molecule": "COCCCOc1ccnc(C[S+]([O-])c2nc3ccccc3[nH]2)c1C.[Na+] (configuration not stated)", "test-result": 0.5892}
{"molecule": "CN[C@@H]1[C@@H](O)[C@@H](O[C@@H]2[C@@H](O)[C@H](O[C@H]3O[C@H](CN)CC[C@H]3N)[C@@H](N)C[C@H]2N)OC[C@]1(C)O.CN[C@@H]1[C@@H](O)[C@@H](O[C@@H]2[C@@H](O)[C@H](O[C@H]3O[C@H]([C@@H](C)N)CC[C@H]3N)[C@@H](N)C[C@H]2N)OC[C@]1(C)O.CN[C@@H]1[C@@H](O)[C@@H](O[C@@H]2[C@@H](O)[C@H](O[C@H]3O[C@H]([C@@H](C)NC)CC[C@H]3N)[C@@H](N)C[C@H]2N)OC[C@]1(C)O.O=S(=O)(O)O", "test-result": 0.01806}
{"molecule": "CC(C(=O)[O-])c1cccc(Oc2ccccc2)c1.CC(C(=O)[O-])c1cccc(Oc2ccccc2)c1.O.O.[Ca+2] (configuration not stated)", "test-result": 0.03953}
{"molecule": "Cl.Cl.NCCc1cc[nH]n1", "test-result": 0.03591}
{"molecule": "Clc1cc(Cl)c(OCC#CI)cc1Cl", "test-result": -0.09794}
{"molecule": "CC[C@H](C)[C@H](NC(=O)[C@H](Cc1ccc(O)cc1)NC(=O)[C@@H](NC(=O)[C@H](CCCNC(=N)N)NC(=O)[C@@H](N)CC(=O)O)C(C)C)C(=O)N[C@@H](Cc1c[nH]cn1)C(=O)N1CCC[C@H]1C(=O)N[C@@H](Cc1ccccc1)C(=O)O.O=C(O)C(F)(F)F", "test-result": 0.4608}
{"molecule": "CC(=O)[C@H]1CC[C@H]2[C@@H]3CCC4=CC(=O)CC[C@]4(C)[C@H]3CC[C@]12C", "test-result": 0.4087}

* * *

System: SARS-CoV-2
Assay: Inhibition of cell viability relative to arbidol control (inhibition index > 1 indicates higher activity) measured by fluorescence (OD590nm) in Vero E6 cells infected with SARS-CoV-2 (strain BavPat1) at MOI 0.002 after 72hrs
Format: functional, Chlorocebus sabaeus, Vero C1008
Whole data set: some 1,500 compounds, median “Inhibition index” near 0.17, cut for the highest 2% near 1.3. The list comes from a sample in which the highest values are over-represented; it also holds close analogues and randomly drawn compounds.
measured-property: Inhibition index

{"compound": "C[C@]12CC[C@@H]3c4ccc(O)cc4CC[C@H]3[C@@H]1C[C@@H](O)[C@@H]2O", "test-result": 0.6126}
{"compound": "CN(C)C(=N)NC(=N)N.Cl [METFORMIN HYDROCHLORIDE]", "test-result": 0.00269}
{"compound": "CCOC(=O)[C@H](CCc1ccccc1)N[C@@H](C)C(=O)N1[C@H](C(=O)O)C[C@H]2CCCC[C@@H]21", "test-result": 0.1383}
{"compound": "Cc1cc(/C=C/c2ccc3cc(N(C)C)ccc3[n+]2C)c(C)n1-c1ccccc1.Cc1cc(/C=C/c2ccc3cc(N(C)C)ccc3[n+]2C)c(C)n1-c1ccccc1.O=C([O-])c1cc2ccccc2c(Cc2c(O)c(C(=O)[O-])cc3ccccc23)c1O [PYRVINIUM PAMOATE]", "test-result": -0.3469}
{"compound": "CC(COc1ccccc1)NC(C)C(O)c1ccc(O)cc1.Cl (stereo not given) [ISOXSUPRINE HYDROCHLORIDE]", "test-result": -0.02068}
{"compound": "CC1=C(/C=C/C(C)=C/C=C/C(C)=C\\C(=O)O)C(C)(C)CCC1", "test-result": 1.484}
{"compound": "CC1=C(/C=C/C(C)=C/C=C/C(C)=C/C(=O)O)C(C)(C)CCC1", "test-result": 0.999}
{"compound": "C[C@]12CC[C@@H]3c4ccc(O)cc4CC[C@H]3[C@@H]1CCC2=O", "test-result": 0.9303}
{"compound": "CC(CCc1ccccc1)NCC(O)c1ccc(O)c(C(N)=O)c1.Cl (stereo not given) [LABETALOL HYDROCHLORIDE]", "test-result": 0.3584}
{"compound": "CCOc1nc2cccc(C(=O)O)c2n1Cc1ccc(-c2ccccc2-c2nnn[nH]2)cc1", "test-result": 1.166}
{"compound": "CC(NCCc1ccc(O)cc1)C(O)c1ccc(O)cc1.Cl (stereo not given) [RITODRINE HYDROCHLORIDE]", "test-result": 0.3972}
{"compound": "C[C@H](CCc1ccccc1)NC[C@H](O)c1ccc(O)c(C(N)=O)c1", "test-result": 1.277}
{"compound": "CC(C)NCC(O)c1ccc2ccccc2c1.Cl (stereo not given)", "test-result": 0.8858}
{"compound": "C[C@]12CC[C@@H]3c4ccc(O)cc4CC[C@H]3[C@@H]1CC[C@@H]2O", "test-result": 0.3797}
{"compound": "CC(=O)OCC(=O)[C@@]12N=C(C)O[C@@H]1C[C@H]1[C@@H]3CCC4=CC(=O)C=C[C@]4(C)[C@H]3[C@@H](O)C[C@@]12C", "test-result": 0.4333}

Source: ChEMBL document CHEMBL4303097
